System: NAMPT (Homo sapiens (Human))
Sequence (P43490 whole entry): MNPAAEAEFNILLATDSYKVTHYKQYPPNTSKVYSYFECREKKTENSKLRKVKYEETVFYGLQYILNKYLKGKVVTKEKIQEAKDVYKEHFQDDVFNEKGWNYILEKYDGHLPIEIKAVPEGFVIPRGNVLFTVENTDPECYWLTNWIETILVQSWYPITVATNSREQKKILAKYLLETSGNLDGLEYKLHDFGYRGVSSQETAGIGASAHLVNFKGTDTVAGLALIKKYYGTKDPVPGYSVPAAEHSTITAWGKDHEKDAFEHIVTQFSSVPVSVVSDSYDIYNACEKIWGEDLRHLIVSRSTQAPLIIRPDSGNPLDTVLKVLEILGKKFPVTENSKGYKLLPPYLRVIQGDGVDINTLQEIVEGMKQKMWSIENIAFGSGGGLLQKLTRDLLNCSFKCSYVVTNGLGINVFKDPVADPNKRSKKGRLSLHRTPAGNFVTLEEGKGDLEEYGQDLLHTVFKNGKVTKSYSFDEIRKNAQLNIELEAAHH
Protocol notes: NAMPT biochemical inhibition assay (NMN quantified by mass spectrometry)
Conditions: NAMPT biochemical inhibition; read-out: Biochem IC50
Strictly below 3 nM in IC50: True. Otherwise: False.

                                given_smiles  assigned_category
 0  Cc1cc(C)n(-c2cccc(S(=O)(=O)c3ccc(NC(=O)NCc4cccnc4)cc3)c2)n1               True
 1  Cc1cc(F)cc(S(=O)(=O)c2ccc(NC(=O)NCc3cccnc3)cc2)c1               True
 2  COc1ccc(C(F)(F)F)cc1S(=O)(=O)c1ccc(NC(=O)NCc2cccnc2)cc1               True
 3  O=C(NCc1cccnc1)Nc1ccc(S(=O)(=O)c2cccc3cccnc23)cc1               True
 4  CN(C)C(=O)c1cc(F)cc(S(=O)(=O)c2ccc(NC(=O)NCc3cccnc3)cc2)c1               True
 5  O=C(NCc1cccnc1)Nc1ccc(S(=O)(=O)N(Cc2ccccc2)Cc2ccccc2)cc1               True
 6  O=C(NCc1cccnc1)Nc1ccc(S(=O)(=O)c2ccccc2OC(F)(F)F)cc1               True
 7  O=C(NCc1cccnc1)Nc1ccc(S(=O)(=O)N2CCN(CC(=O)N3CCOCC3)CC2)cc1              False
 8  COc1ccc(C(C)=O)cc1S(=O)(=O)c1ccc(NC(=O)NCc2cccnc2)cc1               True
 9  O=C(NCc1cccnc1)Nc1ccc(S(=O)(=O)Nc2cccnc2Oc2ccc(F)cc2)cc1              False
10  O=C(NCc1cccnc1)Nc1ccc(S(=O)(=O)C2CCCC2)cc1              False
11  O=C(NCc1cccnc1)Nc1ccc(S(=O)(=O)Nc2ccc(F)cc2Cl)cc1               True
12  CN(C)C(=O)C1CCN(S(=O)(=O)c2ccc(NC(=O)NCc3cccnc3)cc2)CC1              False
13  COCc1cccc(S(=O)(=O)c2ccc(NC(=O)NCc3cccnc3)cc2)c1              False
